# system_under_test: T4 lysozyme L99A/M102H† (Enterobacteria phage T4, UniProt P00720, C54T/C97A/E108V/L99A/M102H/N144D/S117V/S38D/T142C/T21C)
# Format: binding
# conditions: crystal structure
assay_endpoint: hydrogen bond distance between ligand and His102 (Å)
Give your result in Å as a bare value.

Ask: Need hydrogen bond distance between ligand and His102, item C#CC(O)c1ccccc1 (stereo not shown)
Reply: 2.77

Ask: Need hydrogen bond distance between ligand and His102, item C=CCc1ccccc1O
Reply: 3.00

Ask: Need hydrogen bond distance between ligand and His102, item Nc1ncc(Cl)s1
Reply: 2.89

Ask: Need hydrogen bond distance between ligand and His102, item Brc1c[nH]cn1
Reply: 2.93

Ask: Need hydrogen bond distance between ligand and His102, item O=Cc1cc(O)ccc1Br [2-bromo-5-hydroxybenzaldehyde]
Reply: 2.50

Ask: Need hydrogen bond distance between ligand and His102, item Cc1cc(C(F)(F)F)n[nH]1
Reply: 2.90

Ask: Need hydrogen bond distance between ligand and His102, item FC(F)(F)c1c[nH]cn1
Reply: 2.85
